# Assayed target: His-AKT (Full Length) (Homo sapiens (Human), UniProt P31749)
# Sequence (P31749 whole entry): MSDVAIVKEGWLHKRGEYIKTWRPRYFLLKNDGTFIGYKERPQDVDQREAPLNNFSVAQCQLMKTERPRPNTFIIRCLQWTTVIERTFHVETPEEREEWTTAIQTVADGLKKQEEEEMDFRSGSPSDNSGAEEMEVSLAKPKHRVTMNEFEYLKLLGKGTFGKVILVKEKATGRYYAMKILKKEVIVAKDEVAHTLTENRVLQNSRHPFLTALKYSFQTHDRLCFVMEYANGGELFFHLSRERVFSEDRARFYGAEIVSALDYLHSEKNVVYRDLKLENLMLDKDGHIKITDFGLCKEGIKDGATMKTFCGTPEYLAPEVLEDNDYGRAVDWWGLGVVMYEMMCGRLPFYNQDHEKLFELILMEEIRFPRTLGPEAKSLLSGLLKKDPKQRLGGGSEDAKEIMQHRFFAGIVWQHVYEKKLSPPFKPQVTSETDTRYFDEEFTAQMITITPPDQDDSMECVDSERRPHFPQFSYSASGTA
# Protocol: AKT enzyme assay
# Type: biochemical
# Experimental context: read-out: IC50 AKT
Let's look at some compounds and their measured IC50.
Note: a bare number is incomplete; add the unit.

Below, 6 compounds whose answers are already recorded.
CC(C)N(C)CCn1cc(-c2ccc(F)c(C(F)(F)F)c2)nc1C1CCN(c2ncnc(N)c2C(N)=O)CC1 [Compound 361] ... 11 nM
Cn1cc(-c2ccc(F)c(C(F)(F)F)c2)nc1C1CCN(c2ncnc(N)c2-c2cncnc2)CC1 [Compound 48] ... 440 nM
CN(C)CCn1cc(-c2ccc(F)c(C(F)(F)F)c2)nc1C1CCN(c2ncnc(N)c2C#N)CC1 [Compound 8] ... 9.1 nM
Nc1ncnc(N2CCC(c3nc(-c4ccc(F)c(Cl)c4)cn3CCN3CCCC3)CC2)c1Br [Compound 268] ... 1.8 nM
COc1ccc(-c2cn(CCN3CCC3)c(C3CCN(c4ncnc(N)c4C#N)CC3)n2)cc1F [Compound 321] ... 59 nM
CCc1c(N)ncnc1N1CCC(c2nc(-c3ccc(F)c(C(F)(F)F)c3)cn2C[C@@H]2CCN2)CC1 [Compound 152] ... 280 nM

Would you kindly look at the next entry?
Look up IC50: CNc1ncnc(N2CCC(c3nc(-c4ccc(F)c(C)c4)cn3CC3CNC3)CC2)c1Cl [Compound 193]
5700 nM

====

# Assayed target: P70S6K (T412E mutant) (Homo sapiens (Human), UniProt P23443, T412E)
# Sequence (P23443 whole entry T412E): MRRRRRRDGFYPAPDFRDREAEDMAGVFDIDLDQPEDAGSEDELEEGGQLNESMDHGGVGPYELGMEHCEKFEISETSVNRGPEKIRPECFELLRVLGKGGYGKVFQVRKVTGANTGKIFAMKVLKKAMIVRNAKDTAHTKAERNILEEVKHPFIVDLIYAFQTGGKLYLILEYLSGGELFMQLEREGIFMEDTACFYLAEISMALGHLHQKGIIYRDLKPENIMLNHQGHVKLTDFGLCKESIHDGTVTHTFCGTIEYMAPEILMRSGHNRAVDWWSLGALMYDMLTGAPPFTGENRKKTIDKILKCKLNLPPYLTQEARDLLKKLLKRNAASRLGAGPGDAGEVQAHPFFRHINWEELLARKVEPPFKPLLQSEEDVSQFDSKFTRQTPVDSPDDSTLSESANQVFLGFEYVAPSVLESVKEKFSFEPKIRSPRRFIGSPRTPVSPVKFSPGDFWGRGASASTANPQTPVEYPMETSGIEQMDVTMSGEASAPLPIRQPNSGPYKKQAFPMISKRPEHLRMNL
# Protocol: P70S6K enzyme assay
# Type: biochemical
# Experimental context: read-out: IC50 p70S6K
# Protocol: P70S6K inhibitor compounds are diluted and plated in 96 well plates. […] The reaction is incubated for 90 min at 25° C., before the addition of 10 mM EDTA to stop the reaction. The proportion of substrate and product (phosphorylated) peptide is analysed on a Caliper Life Sciences Lab Chip 3000, using a pressure of −1.4 psi, and upstream and downstream voltages of −3000 and −700 respectively. Product peaks are resolved before substrate peaks on the resulting chromatograms.
Outcome measure: pIC50
// field semantics: pIC50 = negative decimal log of concentration (mol/L)

These recorded examples may help you get a feel for the data.
CNCCn1cc(-c2ccc(F)c(C(F)(F)F)c2)nc1C1CCN(c2ncnc(N)c2C(N)=O)CC1 ... 8.47
Cn1cc(-c2ccc(F)c(C(F)(F)F)c2)nc1C1CCN(c2ncnc(N)c2-c2cnc(N)nc2)CC1 ... 8.36

Which pIC50 is reported for this compound? COc1ccc(-c2c(N)ncnc2N2CCC(c3nc(-c4ccc(F)c(C(F)(F)F)c4)cn3C)CC2)cc1
8.33

====

# Assayed target: His-AKT (Full Length) (Homo sapiens (Human), UniProt P31749)
# Protocol: AKT enzyme assay
# Format: biochemical
# Experimental context: read-out: IC50 AKT
Recorded measurements of pIC50, one per entry
// field semantics: pIC50 = negative decimal log of concentration (mol/L)

Using the record for CCOc1c(N)ncnc1N1CCC(c2nc(-c3ccc(F)c(C)c3)cn2CCN2CCCC2)CC1 , report its pIC50.
8.18

====

# Assayed target: His-AKT (Full Length) (Homo sapiens (Human), UniProt P31749)
# Protocol: AKT enzyme assay
# Type: biochemical
# Experimental context: read-out: IC50 AKT
# Excerpt: A TTP Mosquito liquid handling instrument is used to place 125n1 of the appropriate concentration of inhibitor in 100% DMSO (for a dose response curve calculation) into each well of a 384-well plate. […] The plate is read on a Caliper LC 3000 in an Off-Chip mobility shift assay format, using the following parameters for a 12-sipper chip: screening pressure −2.3 psi, upstream voltage −500, and downstream voltage −3000. […]
Outcome measure: pIC50
Scale note: pIC50 = -log10(concentration in M).

Check out these entries, answers already filled in.
NC(=O)c1c(N)ncnc1N1CCC(c2nc(-c3ccc(OC(F)F)cc3)cn2CCN2CCC2)CC1 ... 4.82
Cc1ccc(-c2c(N)ncnc2N2CCC(c3nc(-c4ccc(F)c(C(F)(F)F)c4)cn3C)CC2)cc1 ... 5.08
Nc1ncnc(N2CCC(c3nc(-c4ccc(F)c(C(F)(F)F)c4)cn3CCN3CCCC3)CC2)c1-c1ccccc1F ... 7.12
C=Cc1c(N)ncnc1N1CCC(c2nc(-c3ccc(F)c(C(F)(F)F)c3)cn2CCN2CCCCC2)CC1 ... 7.92
COc1c(N)ncnc1N1CCC(c2nc(-c3ccc(F)c(C(F)(F)F)c3)cn2CCN2CCC2)CC1 ... 8.21

Returns the measured pIC50 for the input compound. Input: Nc1ncnc(N2CCC(c3nc(-c4cccc(F)c4)cn3CCN3CCCC3)CC2)c1C1CCC1
7.70

Look at this compound and give its reported pIC50. CCc1c(N)ncnc1N1CCC(c2nc(-c3ccnc(Cl)c3)cn2CCN2CCC2)CC1
7.78

Please give the measured pIC50 for this compound: CCOc1c(N)ncnc1N1CCC(c2nc(-c3ccc(F)c(C)c3)cn2CCO)CC1
6.47

Which pIC50 is reported for this compound? Nc1ncnc(N2CCC(c3nc(-c4ccc(F)c(Cl)c4)cn3CCN3CCCC3)CC2)c1C1CCC1
8.31

Given the compound CN(C)CCN(C)CCn1cc(-c2ccc(F)c(C(F)(F)F)c2)nc1C1CCN(c2ncnc(N)c2C#N)CC1 , what is its reported pIC50?
7.12

Entry CC(C)c1cc(-c2cn(CCN3CCC3)c(C3CCN(c4ncnc(N)c4Cl)CC3)n2)ccn1 : reported pIC50 = ?
8.62

Look up pIC50: NC(=O)c1c(N)ncnc1N1CCC(c2nc(-c3ccnc(C(F)(F)F)c3)cn2CCN2CCC2)CC1
7.05

// pIC50 lookup, key: NC(=O)c1c(N)ncnc1N1CCC(c2nc(-c3ccc(F)c(C(F)(F)F)c3)cn2CCO)CC1
6.74

For the compound COC(=O)c1ccc(-c2c(N)ncnc2N2CCC(c3nc(-c4ccc(F)c(C(F)(F)F)c4)cn3CCN(C)C)CC2)cc1 , what pIC50 is on record?
7.02

Please give the measured pIC50 for this compound: N#Cc1c(N)ncnc1N1CCC(c2nc(-c3ccc(F)c(C(F)(F)F)c3)cn2C2CCNCC2)CC1
6.80

What value of measured pIC50 is listed for CCc1c(N)ncnc1N1CCC(c2nc(-c3ccc(C(F)(F)F)c(F)c3)cn2CCN2CCCC2)CC1 ?
6.33

Entry CCc1c(N)ncnc1N1CCC(c2nc(-c3ccc(F)c(F)c3)cn2CCN2CCOCC2)CC1 : reported pIC50 = ?
6.43

Consider the compound shown here: Cc1cc(-c2cn(CCN(C)C)c(C3CCN(c4ncnc(N)c4-c4cn[nH]c4)CC3)n2)ccc1F What is its recorded pIC50?
8.32

Reported pIC50 for N#Cc1c(N)ncnc1N1CCC(c2nc(-c3ccc(F)c(C(F)(F)F)c3)cn2CCN)CC1 : what is it?
8.44

Which measured pIC50 value corresponds to Nc1ncnc(N2CCC(c3nc(-c4ccc(F)c(C(F)(F)F)c4)cn3CCN3CCCCC3)CC2)c1Br ?
8.05
